target: SpLsb4; assay: SPOT peptide array binding signal intensity (averaged, normalized) (arbitrary units (background-subtracted, floor 0; scale differs between SH3 domains)); higher = stronger binding of the SH3 domain to the peptide
Overview of recorded SPOT peptide array binding signal intensity for various binders
Number only, please.

Worked examples, 3 binders total:
GLRRARYKFPGQQKI    56
FSRRQSMDIPSKNRN    290
RRARRQMGIPTISQV    642

Requested read-out: SPOT peptide array binding signal intensity. Entry: `TIRRRAPLSLLESHT`
135

Requested read-out: SPOT peptide array binding signal intensity. Entry: `PPPPPPPPPPLPQSL`
23

Requested read-out: SPOT peptide array binding signal intensity. Entry: `VSKLRSPNTPRRLRK`
2990

Source: the supplement of paper PMC4466140
